Recorded values, source patent US11083725B2.

Test system: NHBE cells
Test: Biolog metabolic array: substrate use by NHBE cells with or without CA09 infection
Type: cell-based, human
Conditions: Control (uninfected) NHBE cells, 9 hr
We begin with a simple list: items and their reported 590 nm absorbance normalized to zero hour (substrate use), 9 hr.
Number, no unit, nothing else.

| molecule | reported |
| --- | --- |
| CC(O)C(C)O (centres unmarked) | 2.09 |
| C[C@@H](O)CC(=O)O [b-Hydroxy-Butyric Acid] | 2.90 |
| OC[C@@H](O)[C@@H](O)[C@@H](O)CO | 1.55 |
| OC[C@H]1O[C@@H](O[C@H]2[C@H](O)[C@@H](O)[C@H](O)O[C@@H]2CO)[C@H](O)[C@@H](O)[C@@H]1O | 5.13 |

Now turn to the next molecule.
## Task Record lookup: for NHBE cells, what 590 nm absorbance normalized to zero hour (substrate use), 9 hr belongs to COC(=O)CCC(=O)O [Mono Methyl Succinate] ?
## Result 1.11
